Molecular target: human DGKα (Homo sapiens (Human))
Sequence (P23743 whole entry, looked up): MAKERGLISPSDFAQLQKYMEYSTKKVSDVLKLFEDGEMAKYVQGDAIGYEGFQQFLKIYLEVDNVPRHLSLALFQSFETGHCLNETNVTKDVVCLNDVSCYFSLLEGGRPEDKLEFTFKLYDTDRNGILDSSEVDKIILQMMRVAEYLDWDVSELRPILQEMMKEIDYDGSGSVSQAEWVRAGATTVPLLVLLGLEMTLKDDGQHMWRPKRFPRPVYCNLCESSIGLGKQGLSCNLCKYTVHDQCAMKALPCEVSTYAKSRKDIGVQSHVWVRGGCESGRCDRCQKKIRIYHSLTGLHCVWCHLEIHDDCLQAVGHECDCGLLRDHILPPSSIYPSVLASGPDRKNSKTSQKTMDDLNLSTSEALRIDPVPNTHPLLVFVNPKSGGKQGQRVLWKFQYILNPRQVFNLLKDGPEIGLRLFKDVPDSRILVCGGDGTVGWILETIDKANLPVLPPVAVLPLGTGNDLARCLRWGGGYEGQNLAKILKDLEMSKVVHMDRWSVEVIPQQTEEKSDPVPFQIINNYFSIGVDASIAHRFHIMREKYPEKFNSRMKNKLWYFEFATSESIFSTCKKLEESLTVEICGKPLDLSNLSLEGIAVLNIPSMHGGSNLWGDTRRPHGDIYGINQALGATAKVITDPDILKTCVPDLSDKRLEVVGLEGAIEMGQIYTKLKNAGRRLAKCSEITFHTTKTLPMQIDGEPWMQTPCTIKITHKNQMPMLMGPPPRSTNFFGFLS
Assay: DGKα ADPGLO assay (detergent/lipid micelle substrate)
Type: biochemical
Conditions: truncated DGK alpha; read-out: DGK alpha ADPGLO (Truncated) IC50
So I've got a bunch of compounds here, and I need their IC50 values.
Numbers only, in nM.

// below: answered compounds
* CC[C@H]1CN(C(C)c2cccc(OC(F)F)n2)[C@H](CC)CN1c1nc(=O)n(C)c2ccc(C#N)nc12 (stereo partly drawn) [Example 240] | 73
* CCC(c1ccc(OC(F)(F)F)cc1)N1C[C@H](C)N(c2nc(=O)n(C)c3ccc(C#N)nc23)C[C@H]1CC (single isomer, unassigned) [Example 84] | 54
* CCC(c1ccc(C(F)(F)F)cc1)N1C[C@H](C)N(c2nc(=O)n(C)c3ccc(C#N)nc23)C[C@H]1CC (single isomer, unassigned) [Example 89] | 60
* CC[C@@H]1CN(c2nc(=O)n(C)c3ccc(C#N)nc23)[C@@H](C)CN1C(c1ccc(OC(F)(F)F)cc1)c1ccccn1 (single isomer, unassigned) [Example 93] | 18
* CCC(c1ccc(OC(F)(F)F)cc1)N1C[C@H](CC)N(c2nc(=O)n(C)c3ccc(C#N)nc23)C[C@H]1CC (single isomer, unassigned) [Example 36] | 190

Reported IC50 for CC[C@H]1CN(C(C)c2ccc(C)nc2)[C@H](CC)CN1c1nc(=O)n(C)c2ccc(C#N)nc12 (stereo partly drawn) [Example 229] was 680

Data origin, for the record: patent US11584747B2
